Measured values drawn from ChEMBL document CHEMBL3112535 for this set.

target: Cocaine esterase (Homo sapiens, UniProt O00748); assay: Metabolic stability of the compound in human intestinal microsomes assessed as carboxylesterase-2-mediated hydrolysis by measuring half life in absence of NADPH; assay type: ADME, Intestine; details: microsomes
Sequence (O00748 whole entry): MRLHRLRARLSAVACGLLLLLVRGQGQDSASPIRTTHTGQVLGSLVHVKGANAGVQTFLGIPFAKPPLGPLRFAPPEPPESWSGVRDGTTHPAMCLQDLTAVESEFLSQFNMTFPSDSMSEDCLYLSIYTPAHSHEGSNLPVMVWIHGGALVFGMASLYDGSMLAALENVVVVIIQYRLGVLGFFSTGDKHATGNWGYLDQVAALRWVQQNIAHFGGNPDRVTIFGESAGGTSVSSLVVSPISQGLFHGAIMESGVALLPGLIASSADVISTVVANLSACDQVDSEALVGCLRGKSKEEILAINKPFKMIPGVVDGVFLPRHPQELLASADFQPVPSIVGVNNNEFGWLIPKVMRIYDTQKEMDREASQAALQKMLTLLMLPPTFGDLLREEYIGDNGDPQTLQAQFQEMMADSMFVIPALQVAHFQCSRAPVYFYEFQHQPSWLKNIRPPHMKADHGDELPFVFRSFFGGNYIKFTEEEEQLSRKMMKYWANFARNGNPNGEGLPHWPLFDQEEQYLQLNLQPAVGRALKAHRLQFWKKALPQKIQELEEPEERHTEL

[
  {
    "Compound": "COC(=O)NCCCC(Cc1ccccc1)C(=O)Oc1ccc(Oc2ccc(CN(Cc3ccccc3)c3cccc(NS(C)(=O)=O)c3C)cc2)cc1 (stereo not drawn)",
    "t1/2 (min)": 9.9
  },
  {
    "Compound": "COC(=O)NCCCC(Cc1cn(Cc2ccccc2)nn1)C(=O)Oc1ccc(Oc2ccc(CN(Cc3ccccc3)c3cccc(NS(C)(=O)=O)c3C)cc2)cc1 (stereo not drawn)",
    "t1/2 (min)": 1.9
  },
  {
    "Compound": "COC(=O)NCCCC(C)(Cc1ccccc1)C(=O)Oc1ccc(Oc2ccc(CN(Cc3ccccc3)c3cccc(NS(C)(=O)=O)c3C)cc2)cc1 (stereo not drawn)",
    "t1/2 (min)": 32
  },
  {
    "Compound": "COC(=O)NCCCC(C)(C)C(=O)Oc1ccc(Oc2ccc(CN(Cc3ccccc3)c3cccc(NS(C)(=O)=O)c3C)cc2)cc1",
    "t1/2 (min)": 1.4
  },
  {
    "Compound": "C#CCC(CCCNC(=O)OC)C(=O)OCCOc1ccc(Oc2ccc(CN(Cc3ccccc3)c3cccc(NS(C)(=O)=O)c3C)cc2)cc1 (stereo not drawn)",
    "t1/2 (min)": 0.73
  },
  {
    "Compound": "C#CCC(CCCNC(=O)OC)C(=O)Oc1ccc(Oc2ccc(CN(Cc3ccccc3)c3cccc(NS(C)(=O)=O)c3C)cc2)cc1 (stereo not drawn)",
    "t1/2 (min)": 0.84
  },
  {
    "Compound": "COC(=O)NCCCC(Cc1cn(Cc2ccccc2)nn1)C(=O)OCCOc1ccc(Oc2ccc(CN(Cc3ccccc3)c3cccc(NS(C)(=O)=O)c3C)cc2)cc1 (stereo not drawn)",
    "t1/2 (min)": 3.8
  },
  {
    "Compound": "COC(=O)NCCCC(C)C(=O)Oc1ccc(Oc2ccc(CN(Cc3ccccc3)c3cccc(NS(C)(=O)=O)c3C)cc2)cc1 (stereo not drawn)",
    "t1/2 (min)": 0.53
  }
]
